- System: Staphylococcus aureus
- PROTOCOL TEXT: Antibacterial activity against methicillin-resistant Staphylococcus aureus 12-28 after 18 hrs by agar dilution method
- Format: functional
- RECORDED CONDITIONS: 12-28, 18 h
Below: a set of entries, each annotated with reported MIC.

Prompt line: What value of MIC has been recorded for this entry: COC(=O)c1c(OC)cc2cc3c(c(O)c2c1C)C(=O)[C@@]1(O)C(OC)=CC(=O)[C@H](OC)[C@@]1(O)C3=O
Response line: > 64 µg/mL

---

Below: a set of entries, each annotated with reported MIC.
- Test system: Enterococcus faecalis
- PROTOCOL TEXT: Antibacterial activity against vancomycin-resistant Enterococcus faecalis 09-9 after 18 hrs by agar dilution method
- Format: functional
- RECORDED CONDITIONS: 09-9, 18 h

[
  {
    "COMPOUND": "COC(=O)c1c(OC)cc2cc3c(c(O)c2c1C)C(=O)O[C@H]3[C@@]1(O)[C@H](O)C(OC)=CC(=O)[C@H]1OC",
    "MIC": "> 64 µg/mL"
  }
]

Prompt line: What value of MIC has been recorded for this entry: COC(=O)c1c(OC)cc2cc3c(c(O)c2c1C)C(=O)O[C@@H]3[C@@]1(O)[C@H](O)C(OC)=CC(=O)[C@@H]1O
Response line: > 64 µg/mL

Prompt line: C[C@H]1COc2c(N3CCN(C)CC3)c(F)cc3c(=O)c(C(=O)O)cn1c23.C[C@H]1COc2c(N3CCN(C)CC3)c(F)cc3c(=O)c(C(=O)O)cn1c23.O [LEVOFLOXACIN] , same question.
Response line: > 128 µg/mL

Prompt line: COC(=O)c1c(OC)cc2cc3c(c(O)c2c1C)C(=O)O[C@@H]3[C@@]1(O)[C@H](O)C(OC)=CC(=O)[C@@H]1OC , same question.
Response line: > 64 µg/mL

Prompt line: COC(=O)c1c(OC)cc2cc3c(c(O)c2c1C)C(=O)[C@@]1(O)C(OC)=CC(=O)[C@H](OC)[C@@]1(O)C3=O , same question.
Response line: > 64 µg/mL

---

- Tested on: Escherichia coli
- PROTOCOL TEXT: Antibacterial activity against beta-lactamase producing Escherichia coli ATCC 25922 after 18 hrs by agar dilution method
- Assay type: functional
- RECORDED CONDITIONS: ATCC 25922, 18 h
Below: a set of entries, each annotated with reported MIC.

[
  {
    "COMPOUND": "COC(=O)c1c(OC)cc2cc3c(c(O)c2c1C)C(=O)[C@@]1(O)C(OC)=CC(=O)[C@H](OC)[C@@]1(O)C3=O",
    "MIC": "> 64 µg/mL"
  },
  {
    "COMPOUND": "COC(=O)c1c(OC)cc2cc3c(c(O)c2c1C)C(=O)O[C@H]3[C@@]1(O)[C@H](O)C(OC)=CC(=O)[C@H]1OC",
    "MIC": "> 64 µg/mL"
  },
  {
    "COMPOUND": "COC(=O)c1c(OC)cc2cc3c(c(O)c2c1C)C(=O)O[C@@H]3[C@@]1(O)[C@H](O)C(OC)=CC(=O)[C@@H]1OC",
    "MIC": "> 64 µg/mL"
  },
  {
    "COMPOUND": "COC(=O)c1c(OC)cc2cc3c(c(O)c2c1C)C(=O)O[C@@H]3[C@@]1(O)[C@H](O)C(OC)=CC(=O)[C@@H]1O",
    "MIC": "> 64 µg/mL"
  }
]

Prompt line: What value of MIC has been recorded for this entry: C[C@H]1COc2c(N3CCN(C)CC3)c(F)cc3c(=O)c(C(=O)O)cn1c23.C[C@H]1COc2c(N3CCN(C)CC3)c(F)cc3c(=O)c(C(=O)O)cn1c23.O [LEVOFLOXACIN]
Response line: ≤ 0.03 µg/mL
